# target desc: recombinant human tryptase, beta, from lung (Homo sapiens, UniProt P20231)
# Construct: purchased Promega or Enzo Life Sciences G5631 or BML-SE418
# Sequence (P20231 31-275): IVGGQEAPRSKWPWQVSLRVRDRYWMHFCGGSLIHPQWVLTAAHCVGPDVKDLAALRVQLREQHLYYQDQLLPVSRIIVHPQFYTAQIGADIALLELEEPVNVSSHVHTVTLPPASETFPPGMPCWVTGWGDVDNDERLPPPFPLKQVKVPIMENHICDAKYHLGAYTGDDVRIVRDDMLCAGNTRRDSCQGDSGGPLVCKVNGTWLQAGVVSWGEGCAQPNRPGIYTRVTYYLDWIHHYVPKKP
# test summary: Evaluation of inhibition of tryptase activity (Boc-Gln-Ala-Arg-AMC fluorescence)
# Assay type: biochemical
# run conditions: exemplary silyl monomers; 1 nM tryptase; read-out: IC50 range
attribute measured: IC50

smiles str: C[Si](C)(O[Si](C)(C)c1cccc(CC(=O)N2CCC(c3cccc(CN)c3)CC2)c1)c1cccc(CC(=O)N2CCC(c3cccc(CN)c3)CC2)c1
assay result: 0.1 to 1000 nM
//
smiles str: C[Si](C)(O)c1csc2ccc(C(=O)N3CCC(c4cccc(CN)c4)CC3)cc12
assay result: 1000 to 10000 nM
//
smiles str: C[Si](C)(O)c1ccc2c(C(=O)N3CCC(c4cccc(CN)c4)CC3)c[nH]c2c1
assay result: 10000 to 65000 nM
//
smiles str: C[Si](C)(O)c1cccc2ccc(C(=O)N3CCC4(CC3)COc3ccc(CN)cc34)cc12
assay result: 0.1 to 1000 nM
